For each entry below, report its % Inhibition Factor Xa (100 µM) value.
targetUnderTest: Human factor Xa (Homo sapiens, UniProt P00742)
Sequence (P00742 41-179 limits assumed): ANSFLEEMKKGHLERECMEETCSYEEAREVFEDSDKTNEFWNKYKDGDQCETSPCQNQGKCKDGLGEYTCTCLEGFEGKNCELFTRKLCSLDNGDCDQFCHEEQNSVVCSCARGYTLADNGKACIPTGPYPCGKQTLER
Sequence (P00742 235-488 limits assumed): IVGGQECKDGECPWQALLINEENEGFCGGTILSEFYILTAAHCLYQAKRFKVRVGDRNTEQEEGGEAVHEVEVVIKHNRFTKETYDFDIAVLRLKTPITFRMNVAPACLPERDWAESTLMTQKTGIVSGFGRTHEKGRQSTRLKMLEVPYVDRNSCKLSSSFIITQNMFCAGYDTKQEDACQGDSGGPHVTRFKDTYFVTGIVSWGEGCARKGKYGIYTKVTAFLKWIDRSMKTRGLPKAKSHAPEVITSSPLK
assay: Xa Assay
Assay type: biochemical
Parameters: purchased Enzyme Research Laboratories, South Bend Ind
particulars: inhibitor at 100 µM
Hi! Could you send only the number? It should be in %, unit omitted.

Noted for O=C(Cn1c(-c2ccc(Cl)cc2)c(Cl)nc(NCc2ccccc2)c1=O)NCCc1ccncc1 [Example E-0017] : its % Inhibition Factor Xa (100 µM) reads 0

% Inhibition Factor Xa (100 µM) recorded for this molecule, `O=C(Cn1c(-c2ccccc2)c(Cl)nc(NCCN2CCOCC2)c1=O)NCCc1ccncc1` , is 0

The recorded % Inhibition Factor Xa (100 µM) for `Cc1c(Cl)nc(NCc2ccncc2)c(=O)n1CC(=O)NCCc1ccncc1` is 0

Notebook: `O=C(Cn1c(-c2ccccc2)c(Cl)nc(NCc2ccccc2)c1=O)NCCc1ccncc1` , % Inhibition Factor Xa (100 µM) read as 1

The recorded % Inhibition Factor Xa (100 µM) for entry O=C(Cn1c(-c2ccc(Cl)cc2)c(Cl)nc(NCCc2ccc(Cl)cc2)c1=O)NCCc1ccncc1 [Example E-0028] equals 0

// recorded % Inhibition Factor Xa (100 µM) for `Cc1c(Cl)nc(NCCc2cccc(Cl)c2)c(=O)n1CC(=O)NCCc1ccncc1` : 0

Documented % Inhibition Factor Xa (100 µM) of `O=C(Cn1c(-c2ccc3c(c2)OCO3)c(Cl)nc(NCCN2CCOCC2)c1=O)NCCc1ccncc1` : 0

Per the records, this molecule ( O=C(Cn1c(-c2ccc(Cl)cc2)c(Cl)nc(NCCc2ccc(Cl)cc2)c1=O)NCCc1ccncc1 [Example E-0020] ) has % Inhibition Factor Xa (100 µM) equal to 1

Lab book: % Inhibition Factor Xa (100 µM) of `O=C(Cn1c(Cc2ccccc2)c(Cl)nc(NCc2ccncc2)c1=O)NCCc1ccncc1` noted as 0

% Inhibition Factor Xa (100 µM) in this record for `O=C(Cn1c(Cc2ccccc2)c(Cl)nc(NCCc2cccnc2)c1=O)NCCc1ccncc1` : 0

Form field % Inhibition Factor Xa (100 µM), entry `O=C(Cn1c(CCc2ccccc2)c(Cl)nc(NCCc2ccncc2)c1=O)NCCc1ccncc1` : 0

Value of measured % Inhibition Factor Xa (100 µM) for the entry O=C(Cn1c(-c2cccc(Cl)c2)c(Cl)nc(NCCc2ccccc2)c1=O)NCCc1cccnc1 [Example E-0077] : 3

For O=C(Cn1c(-c2cccc(Cl)c2)c(Cl)nc(NCCc2ccc(Cl)cc2)c1=O)NCCc1ccncc1 [Example E-0094] the molecule record lists % Inhibition Factor Xa (100 µM) as 2

Documented % Inhibition Factor Xa (100 µM) of O=C(Cn1c(-c2ccc(Cl)cc2)c(Cl)nc(NCc2ccncc2)c1=O)NCCc1ccncc1 [Example E-0024] : 0

For this molecule ( COc1ccc(-c2c(Cl)nc(NCCc3ccccc3)c(=O)n2CC(=O)NCCc2ccncc2)cc1 [Example E-0034] ), measured % Inhibition Factor Xa (100 µM) is 6

Sample `COc1ccc(-c2c(Cl)nc(NCCc3ccc(Cl)cc3)c(=O)n2CC(=O)NCCc2cccnc2)cc1` ; % Inhibition Factor Xa (100 µM) observed: 6

Form field % Inhibition Factor Xa (100 µM), entry `Cc1c(Cl)nc(NCCc2cccnc2)c(=O)n1CC(=O)NCCc1ccncc1` : 0

Recorded result, `COc1ccc(-c2c(Cl)nc(NCc3ccccc3)c(=O)n2CC(=O)NCCc2cccnc2)cc1` , % Inhibition Factor Xa (100 µM): 2

The recorded % Inhibition Factor Xa (100 µM) for O=C(Cn1c(-c2cccc(Cl)c2)c(Cl)nc(NCCc2cccc(Cl)c2)c1=O)NCCc1ccncc1 [Example E-0079] is 4

Cited source: patent US6908919B2
